Field: normalized growth. Provide a value for each of the compounds that follow.
# experiment-notes: chemical genetic growth profiling, strain panel (AID 1159580);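 also: tested at 20 µM; growth read once vehicle control cultures reached saturation at 30 °C; 1 = growth at the plate median or of vehicle wells; lower values mean less growth of the strain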
# measurement-context: S. cerevisiae deletion strains, growth OD, locus YJL095W, strain BCK1 (second series), active compounds read low
Screen size: about 5,500 compounds; about 2,000 (36%) were called active. Not shown: some 18% with an inconclusive outcome. Some of the results follow.
Just the number.

Exercise: Quick one: normalized growth for COCCOC(=O)C1=C(C)NC(C)=C(C(=O)OC(C)C)C1c1cccc([N+](=O)[O-])c1 (stereo not drawn) ?
Key: 1.02

Exercise: Quick one: normalized growth for CC(C)(C)C(=O)C(Oc1ccc(Cl)cc1)n1cncn1 (stereo not drawn) ?
Key: 0.0779

Exercise: Quick one: normalized growth for COc1cc([C@@H]2c3cc4c(cc3C(O[C@@H]3O[C@@H]5CO[C@@H](c6cccs6)OC5[C@H](O)[C@H]3O)C3COC(=O)[C@@H]32)OCO4)cc(OC)c1O (stereo partly drawn) ?
Key: 0.992

Exercise: Quick one: normalized growth for "COc1ccc(-c2cc(=O)c3c(O)c(OC)c(OC)c(OC)c3o2)cc1" ?
Key: 1

Exercise: Quick one: normalized growth for "COc1c2c(cc3c1OCO3)CC[N+](C)=C2" ?
Key: 1

Exercise: Quick one: normalized growth for "O=c1cc(-c2cccc(O)c2)oc2ccc(O)cc12" ?
Key: 0.942

Exercise: Quick one: normalized growth for "COc1ccc(-c2cc(=O)c3c(OC)c(OC)c(OC)c(OC)c3o2)cc1" ?
Key: 0.899

Exercise: Quick one: normalized growth for "O=c1cc(-c2ccc(O)c(O)c2)oc2ccccc12" ?
Key: 0.976

Exercise: Quick one: normalized growth for CN1CCOC(c2ccccc2)c2ccccc2C1 (stereo not drawn) ?
Key: 0.975

Exercise: Quick one: normalized growth for "C[n+]1cc2c3c(ccc2c2ccc4cc5c(cc4c21)OCO5)OCO3" ?
Key: 0.467

Exercise: Quick one: normalized growth for "C/C(=C\C(=O)OCCCCCCCCC(=O)O)C[C@@H]1OC[C@H](C[C@@H]2O[C@H]2[C@@H](C)[C@H](C)O)[C@@H](O)[C@H]1O" ?
Key: 0.965

Exercise: Quick one: normalized growth for "COc1ccc(-c2cc(=O)c3cc(OC)ccc3o2)cc1" ?
Key: 0.95

Exercise: Quick one: normalized growth for "O=C1CC[C@]23C=CC(=O)NCCCCNCCCNC(=O)/C=C/c4ccc(c2c4)O[C@@H]3C1" ?
Key: 1.04

Exercise: Quick one: normalized growth for COC(=O)C1=C(C)NC(C)=C(C(=O)OCC(C)C)C1c1ccccc1[N+](=O)[O-] (stereo not drawn) ?
Key: 0.112

Exercise: Quick one: normalized growth for CC1(C)O[C@@H]2CC3C4C[C@H](F)C5=CC(=O)C=C[C@]5(C)[C@@]4(F)[C@@H](O)C[C@]3(C)[C@]2(C(=O)CO)O1 (stereo partly drawn) ?
Key: 1.02

Exercise: Quick one: normalized growth for "Cn1c(=O)c2[nH]c(C3CCCC3)nc2n(C)c1=O" ?
Key: 0.992

Exercise: Quick one: normalized growth for "Nc1nc(N)c2nc(-c3ccccc3)c(N)nc2n1" ?
Key: 1.01

Exercise: Quick one: normalized growth for "O=c1cc(-c2ccc(O)cc2)oc2ccc(O)cc12" ?
Key: 0.978

Sourced from PubChem BioAssay AID1159580
